# measured_target: T1, human WISE (human, UniProt Q6X4U4 24-206)
# T1 construct: Recombinant, made in E. coli or mammalian cells; biotinylated in the ELISAs, amine-coupled to CM5 in Biacore; also called huWise; huWISE
# T1 sequence: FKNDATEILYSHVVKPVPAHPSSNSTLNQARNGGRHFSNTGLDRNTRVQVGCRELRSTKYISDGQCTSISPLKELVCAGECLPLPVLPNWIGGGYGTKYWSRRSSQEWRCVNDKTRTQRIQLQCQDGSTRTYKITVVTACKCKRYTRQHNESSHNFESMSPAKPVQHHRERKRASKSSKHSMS
# assay_info: assay not specified (IgG2 from transient transfection)
test_readout: binding result

Ab-62 (antibody, human IgG2, lambda, V domains shown, Phage-derived human light chain with the humanized Ab-C IgG2 heavy chain) VH: QVQLVQSGAEVKKPGSSVKVSCKASGGTFSSTYISWVRQAPGQGLEWMGWIYAGTGGTRYNRKFTGRVTITADESTSTAYMELSSLRSEDTAVYYCAREGVDGWFTYWGQGTLVTVSS VL: QAVLTQPSSVSGAPGRRVTISCTGSSSNIGAGYDVHWYQQLPGKAPKLVISANTNRPSGVPDRFSGSKSGTSASLAITGLQAEDEADYYCQSYDNSVSAYVFGTGTKVTVLG = binds
light chain of SEQ ID NO: 110 paired with the heavy chain of SEQ ID NO: 24 (antibody, human IgG2, lambda, V domains shown) VH: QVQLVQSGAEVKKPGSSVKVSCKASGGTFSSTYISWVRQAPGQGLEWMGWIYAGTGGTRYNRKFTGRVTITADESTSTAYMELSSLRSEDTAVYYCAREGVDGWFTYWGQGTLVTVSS VL: QSVLTQPPSVSGAPGQRVTISCTGGSSNIGAGYEVHWYQLVPGRAPRFLIHGDNDRPSGVPDRFSASESGSSSFLAISGLQDDDEADYYCQSYDTSLSAWVFGGGTKLTVLG = binds
Ab-63 (antibody, human IgG2, lambda, V domains shown, Phage-derived human light chain with the humanized Ab-C IgG2 heavy chain) VH: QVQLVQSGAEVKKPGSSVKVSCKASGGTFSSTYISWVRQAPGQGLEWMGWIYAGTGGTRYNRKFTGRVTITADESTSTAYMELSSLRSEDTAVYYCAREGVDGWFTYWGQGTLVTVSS VL: QSALTQTPSVSGTPGQRVTISCTGSRSNIGAGYDVQWYQQFPGTAPRLLIYANNIRSSGVPDRFSGSKSGTSASLAITGLQAEDEATYYCQSYDRSLSGYVFGTGTEVTVVG = binds

Just for reference, patent US20090130114A1 is where these values come from.
